# procedureSummary: AUC in women plasma at 25 to 320 mg by LC/MS/MS analysis
# Assay type: ADME, organism-based
# testSettings: female, human
measurementLabel: AUC (ng·h/mL)

• CCCCC(=O)N(Cc1ccc(-c2ccccc2-c2nnn[nH]2)cc1)[C@H](C(=O)O)C(C)C = 38600

----------
# procedureSummary: Cmax in human plasma expressing CYP2C9*1/*1 polymorphism treated with losartan at 50 mg by LC/MS/MS analysis
# Assay type: ADME, organism-based
# Parameters: dose 50 mg
measurementLabel: Cmax (ng/mL)

- CCCCc1nc(Cl)c(C(=O)O)n1Cc1ccc(-c2ccccc2-c2nn[nH]n2)cc1 [CARBOXYLIC ACID METABOLITE]: 292

----------
# procedureSummary: Half life in men plasma at 50 mg by LC/MS/MS analysis
# testSettings: male, human
measurementLabel: half-life (min)

* CCCCc1nc(Cl)c(CO)n1Cc1ccc(-c2ccccc2-c2nn[nH]n2)cc1 | 150

----------
# procedureSummary: Cmax in human plasma expressing CYP2C8*2 allele carrier polymorphism at 80 mg by LC/MS/MS analysis
# Type: ADME, organism-based
# Parameters: dose 80 mg
measurementLabel: Cmax

• CCCc1nc2c(C)cc(-c3nc4ccccc4n3C)cc2n1Cc1ccc(-c2ccccc2C(=O)O)cc1 = 498 ng/mL

----------
# procedureSummary: Half life in human plasma expressing CYP2C8*1/*1 polymorphism at 25 to 32 mg by LC/MS/MS analysis
# Format: ADME, organism-based
measurementLabel: half-life (min)

• CCOc1nc2cccc(C(=O)O)c2n1Cc1ccc(-c2ccccc2-c2nnn[nH]2)cc1 = 702

----------
# procedureSummary: Half life in women plasma at 25 to 320 mg by LC/MS/MS analysis
# Assay type: ADME, organism-based
# testSettings: female, human
measurementLabel: half-life

- CCCCC(=O)N(Cc1ccc(-c2ccccc2-c2nnn[nH]2)cc1)[C@H](C(=O)O)C(C)C: 564 min

----------
# procedureSummary: Half life in human plasma expressing CYP2C8*3 allele carrier polymorphism at 25 to 320 mg by LC/MS/MS analysis
# Format: ADME, organism-based
measurementLabel: half-life (h)

* CCCCC(=O)N(Cc1ccc(-c2ccccc2-c2nnn[nH]2)cc1)[C@H](C(=O)O)C(C)C | 9.4

----------
# procedureSummary: Cmax in human plasma expressing CYP2C8*1/*1 polymorphism treated with losartan at 50 mg by LC/MS/MS analysis
# Format: ADME, organism-based
# Set-up: dose 50 mg
measurementLabel: Cmax (ng/mL)

- CCCCc1nc(Cl)c(C(=O)O)n1Cc1ccc(-c2ccccc2-c2nn[nH]n2)cc1 [CARBOXYLIC ACID METABOLITE]: 249

----------
# procedureSummary: Tmax in human plasma expressing CYP2C9*1/*1 polymorphism at 50 mg by LC/MS/MS analysis
# Type: ADME, organism-based
measurementLabel: Tmax (h)

* CCCCc1nc(Cl)c(CO)n1Cc1ccc(-c2ccccc2-c2nn[nH]n2)cc1 | 1.3

----------
# procedureSummary: Half life in women plasma at 80 mg by LC/MS/MS analysis
# Format: ADME, organism-based
# testSettings: female, human
measurementLabel: half-life (h)

• CCCc1nc2c(C)cc(-c3nc4ccccc4n3C)cc2n1Cc1ccc(-c2ccccc2C(=O)O)cc1 = 33.1

----------
# procedureSummary: Tmax in human plasma expressing CYP2C8*4 allele carrier polymorphism treated with losartan at 50 mg by LC/MS/MS analysis
# Assay type: ADME, organism-based
measurementLabel: Tmax (h)

* CCCCc1nc(Cl)c(C(=O)O)n1Cc1ccc(-c2ccccc2-c2nn[nH]n2)cc1 [CARBOXYLIC ACID METABOLITE] | 2.8
